Numbers sourced from paper PMC9742152.

Known % of the compound in the reaction mixture, 30 days of a selection of compounds
assayInfo: Hydrolysis in wet DMSO-d6 at 25 °C followed by 1H NMR
conditionInfo: wet DMSO-d6, 25 °C, 30 days, 1H NMR
Hi, when you answer, please include the unit after the number. Thanks!

// % of the compound in the reaction mixture, 30 days lookup, compound = C[C@]12CC[C@@H]3c4cc(OC(F)F)c(OS(N)(=O)=O)cc4CC[C@H]3[C@@H]1CC[C@@H]2OS(N)(=O)=O [Compound 10] , result: 8%

----------
Test system: MCF-7 breast cancer cells
assayInfo: Anti-proliferative assay, MCF-7 cells
Assay type: cell-based, human
conditionInfo: Homo sapiens, MCF7, 96 h, read-out: GI50 MCF-7
readoutLabel: GI50 (nM)
The figure you give is taken to be in nM; do not add the unit.

Solved cases below.
1) C[C@]12CC[C@@H]3c4cc(OC(F)F)c(OS(N)(=O)=O)cc4CC[C@H]3[C@@H]1CC[C@@H]2O
1100
2) C[C@]12CC[C@@H]3c4cc(OC(F)F)c(OS(N)(=O)=O)cc4CC[C@H]3[C@@H]1CCC2=O
580

--- query ---
// GI50 lookup, molecule = C[C@]12CC[C@@H]3c4cc(OC(F)F)c(O)cc4CC[C@H]3[C@@H]1CC[C@@H]2O , result: 2600

----------
Test system: MDA MB-231 breast cancer cells
assayInfo: Anti-proliferative assay, MDA MB-231 cells
Type: cell-based, human
conditionInfo: Homo sapiens, MDA-MB-231, 48 h, read-out: GI50 MDA MB-231
Known GI50 of a selection of compounds
The figure you give is taken to be in nM; do not add the unit.

// GI50 lookup, compound = C[C@]12CC[C@@H]3c4cc(OC(F)F)c(OS(N)(=O)=O)cc4CC[C@H]3[C@@H]1CC[C@@H]2O , result: 1110

// GI50 lookup, compound = C[C@]12CC[C@@H]3c4cc(OC(F)F)c(OS(N)(=O)=O)cc4CC[C@H]3[C@@H]1CCC2=O , result: 990

// GI50 lookup, compound = C[C@]12CC[C@@H]3c4cc(OC(F)F)c(O)cc4CC[C@H]3[C@@H]1CC[C@@H]2O , result: 3030

----------
assayInfo: Hydrolysis in wet DMSO-d6 at 25 °C followed by 1H NMR
conditionInfo: wet DMSO-d6, 25 °C, 15 days, 1H NMR
Known % of the compound in the reaction mixture, 15 days of a selection of molecules
The figure you give is taken to be in %; do not add the unit.

1) C[C@]12CC[C@@H]3c4cc(OC(F)F)c(O)cc4CC[C@H]3[C@@H]1CC[C@@H]2OS(N)(=O)=O
68
2) COc1cc2c(cc1O)CC[C@@H]1[C@@H]2CC[C@]2(C)[C@@H](OS(N)(=O)=O)CC[C@@H]12
19
3) C[C@]12CC[C@@H]3c4cc(OC(F)F)c(OS(N)(=O)=O)cc4CC[C@H]3[C@@H]1CC[C@@H]2OS(N)(=O)=O
32

--- query ---
// % of the compound in the reaction mixture, 15 days lookup, molecule = C[C@]12CC[C@@H]3c4cc(C(F)F)c(OS(N)(=O)=O)cc4CC[C@H]3[C@@H]1CCC2=O [Compound 23, 2-difluoromethylestrone sulfamate, reference compound] , result: 24

----------
Known IC50 of a selection of compounds
target: steroid sulfatase (STS) (Homo sapiens, UniProt P08842)
assayInfo: In vitro whole cell sulfatase assay, intact JEG-3 cells
Assay type: cell-based
The figure you give is taken to be in nM; do not add the unit.

1. C[C@]12CC[C@@H]3c4cc(OC(F)F)c(OS(N)(=O)=O)cc4CC[C@H]3[C@@H]1CC[C@@H]2O
18.6

--- query ---
// IC50 lookup, compound = C[C@]12CC[C@@H]3c4cc(OC(F)F)c(OS(N)(=O)=O)cc4CC[C@H]3[C@@H]1CCC2=O , result: 5.6

----------
Known pIC50 of a selection of compounds
target: steroid sulfatase (STS) (Homo sapiens)
Sequence (P08842 22-583): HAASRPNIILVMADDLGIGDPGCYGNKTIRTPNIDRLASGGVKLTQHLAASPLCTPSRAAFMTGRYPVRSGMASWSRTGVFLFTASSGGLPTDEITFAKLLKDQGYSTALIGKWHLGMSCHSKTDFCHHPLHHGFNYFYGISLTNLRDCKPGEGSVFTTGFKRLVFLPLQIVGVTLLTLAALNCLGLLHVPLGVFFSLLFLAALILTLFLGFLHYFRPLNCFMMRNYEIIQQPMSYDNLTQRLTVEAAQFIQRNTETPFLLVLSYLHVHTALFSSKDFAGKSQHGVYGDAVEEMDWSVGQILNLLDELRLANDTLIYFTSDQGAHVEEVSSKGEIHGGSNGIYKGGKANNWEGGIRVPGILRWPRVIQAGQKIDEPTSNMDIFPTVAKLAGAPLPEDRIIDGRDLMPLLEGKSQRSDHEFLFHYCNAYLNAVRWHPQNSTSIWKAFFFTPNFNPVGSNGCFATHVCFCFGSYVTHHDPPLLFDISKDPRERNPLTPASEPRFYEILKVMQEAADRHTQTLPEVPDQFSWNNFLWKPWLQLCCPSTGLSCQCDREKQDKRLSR
assayInfo: In vitro cell-free sulfatase assay, JEG-3 lysate
Format: biochemical
Scale explanation: pIC50 corresponds to minus log10 of a concentration expressed in moles per litre.

1) C[C@]12CC[C@@H]3c4cc(OC(F)F)c(OS(N)(=O)=O)cc4CC[C@H]3[C@@H]1CC[C@@H]2O
7.12

--- query ---
// pIC50 lookup, compound = C[C@]12CC[C@@H]3c4cc(OC(F)F)c(OS(N)(=O)=O)cc4CC[C@H]3[C@@H]1CCC2=O , result: 7.25

----------
Known % of the compound in the reaction mixture, 0 days of a selection of compounds
assayInfo: Hydrolysis in wet DMSO-d6 at 25 °C followed by 1H NMR
conditionInfo: wet DMSO-d6, 25 °C, 0 days, 1H NMR
The figure you give is taken to be in %; do not add the unit.

1) C[C@]12CC[C@@H]3c4cc(OC(F)F)c(O)cc4CC[C@H]3[C@@H]1CC[C@@H]2OS(N)(=O)=O
0
2) C[C@]12CC[C@@H]3c4cc(OC(F)F)c(OS(N)(=O)=O)cc4CC[C@H]3[C@@H]1CC[C@@H]2OS(N)(=O)=O
100
3) C[C@]12CC[C@@H]3c4cc(C(F)F)c(OS(N)(=O)=O)cc4CC[C@H]3[C@@H]1CCC2=O [Compound 23, 2-difluoromethylestrone sulfamate, reference compound]
100

--- query ---
// % of the compound in the reaction mixture, 0 days lookup, compound = COc1cc2c(cc1O)CC[C@@H]1[C@@H]2CC[C@]2(C)[C@@H](OS(N)(=O)=O)CC[C@@H]12 , result: 0

----------
Tested on: Bovine brain tubulin
assayInfo: Inhibition of [3H]colchicine binding to tubulin
conditionInfo: 5 μM inhibitor, 5.0 μM [3H]colchicine, 1.0 μM tubulin, mean ±SD
Param threshold (30%) applies to Colchicine binding (% Inhibition); output label 1 when value >= threshold, label 0 when value < threshold.

Some solved cases for reference:
1. C[C@]12CC[C@@H]3c4cc(OC(F)F)c(OS(N)(=O)=O)cc4CC[C@H]3[C@@H]1CCC2=O [Compound 16]
label 1
2. C[C@]12CC[C@@H]3c4cc(OC(F)F)c(OS(N)(=O)=O)cc4CC[C@H]3[C@@H]1CC[C@@H]2OS(N)(=O)=O [Compound 10]
label 0
3. C[C@]12CC[C@@H]3c4cc(OC(F)F)c(OS(N)(=O)=O)cc4CC[C@H]3[C@@H]1CC[C@@H]2O [Compound 12]
label 0
4. COc1cc2c(cc1O)CC[C@@H]1[C@@H]2CC[C@]2(C)[C@@H](O)CC[C@@H]12 [Compound 1, 2-Methoxyestradiol, reference compound]
label 1
5. COc1cc2c(cc1OS(N)(=O)=O)CC[C@@H]1[C@@H]2CC[C@]2(C)[C@@H](OS(N)(=O)=O)CC[C@@H]12 [Compound 4, 2-methoxyestradiol-3,17-O,O-bissulfamate, reference compound]
label 1

Enquiry: Tell me whether Colchicine binding (% Inhibition) is at least 30% here: COc1ccc(/C=C\c2cc(OC)c(OC)c(OC)c2)cc1O [CA-4, combretastatin A-4, reference compound]
Return: label 1

----------
assayInfo: Hydrolysis in wet DMSO-d6 at 25 °C followed by 1H NMR
conditionInfo: wet DMSO-d6, 25 °C, 30 days, 1H NMR
Known % of the compound in the reaction mixture, 30 days of a selection of compounds
Hi, when you answer, please include the unit after the number. Thanks!

Solved cases below.
1. C[C@]12CC[C@@H]3c4cc(C(F)F)c(OS(N)(=O)=O)cc4CC[C@H]3[C@@H]1CCC2=O [Compound 23, 2-difluoromethylestrone sulfamate, reference compound]
5%
2. C[C@]12CC[C@@H]3c4cc(OC(F)F)c(O)cc4CC[C@H]3[C@@H]1CC[C@@H]2OS(N)(=O)=O
92%

// % of the compound in the reaction mixture, 30 days lookup, compound = COc1cc2c(cc1O)CC[C@@H]1[C@@H]2CC[C@]2(C)[C@@H](OS(N)(=O)=O)CC[C@@H]12 , result: 31%
